src = patent US12157749B2

Kindly state GI50 for each of the entries shown.
System: human multiple myeloma cells MM.1S
Assay comment: Activity test on human multiple myeloma cells MM.1S (CCK-8, GI50)
Type: cell-based
Conditions: MM1.S, MM.1S cells, 48 h incubation
Give bare numbers, in µM.

For orientation, consider the following solved cases.
CC(C)C[C@H](NC(=O)CNC(=O)c1cc(C(F)(F)F)ccc1F)B1OC(=O)C(CC(=O)O)(CC(=O)O)O1 [drawing 62]
0.026
CC(C)C[C@H](NC(=O)CNC(=O)c1cc(Br)ccc1Cl)B1OC(=O)C(CC(=O)O)(CC(=O)O)O1 [drawing 60]
0.0133
CC(C)C[C@H](NC(=O)CNC(=O)c1cc(Br)ccc1F)B1OC(=O)C(CC(=O)O)(CC(=O)O)O1 [drawing 61]
0.0112
CC(C)C[C@H](NC(=O)CNC(=O)c1cc(F)ccc1Br)B1OC(=O)C(CC(=O)O)(CC(=O)O)O1 [drawing 64]
0.012

Here is another compound to look at.
Exercise: Param item = CC(C)C[C@H](NC(=O)CNC(=O)c1cc(Cl)ccc1Cl)B1OC(=O)C(CC(=O)O)(CC(=O)O)O1 [drawing 63] ; retrieve measured GI50.
Solution: 0.0128

* * *

Tested on: transplantation tumor of human multiple myeloma MM.1S
Assay comment: Transplantation tumor model of human multiple myeloma cells MM.1S in CB17-SCID mouse, low dose 0.00554 mmol/kg (Activity Experiment Example 4)
Assay type: in vivo
Conditions: day 8; 0.00554 mmol/kg oral gavage twice a week
Where a name gives a salt, the structure may show the parent alone. Marks after values point to notes of the source that are not given here.
Property measured: Relative tumor proliferation rate T/C(%)

CC(C)C[C@H](NC(=O)CNC(=O)c1cc(Cl)ccc1F)B1OC(=O)C(CC(=O)O)(CC(=O)O)O1 [Compound 6q]
47.34^▴▴●● %
CC(C)C[C@H](NC(=O)CNC(=O)c1cc(Cl)ccc1Cl)B1OC(=O)C(CC(=O)O)(CC(=O)O)O1 [MLN9708, Ixazomib Citrate, reference compound]
112.42%
CC(C)C[C@H](NC(=O)CNC(=O)c1cc(Br)ccc1F)B1OC(=O)C(CC(=O)O)(CC(=O)O)O1 [Compound 6b]
5.86^▴▴ %

Exercise: Param readout= Relative tumor proliferation rate T/C(%); system= transplantation tumor of human multiple myeloma MM.1S; entry= CC(C)C[C@H](NC(=O)CNC(=O)c1cc(Br)ccc1F)B1OC(=O)C(c2ccccc2)O1 (stereo partly shown) [Compound 6f] ; returns value.
Solution: 43.49^▴▴● %

* * *

Test system: human multiple myeloma cells RPMI-8226
Assay comment: Activity test on human multiple myeloma cells RPMI-8226 (CCK-8, GI50)
Assay type: cell-based
Conditions: RPMI 8226 cells, 48 h incubation
Kindly state GI50 for each of the entries shown.
Give bare numbers, in µM.

For orientation, consider the following solved cases.
CC(C)C[C@H](NC(=O)CNC(=O)c1cc(Cl)ccc1Cl)B1OC(=O)C(CC(=O)O)(CC(=O)O)O1 [drawing 63]
0.0122
CC(C)C[C@H](NC(=O)CNC(=O)c1cc(C(F)(F)F)ccc1F)B1OC(=O)C(CC(=O)O)(CC(=O)O)O1 [drawing 62]
0.0182
CC(C)C[C@H](NC(=O)CNC(=O)c1cc(F)ccc1Br)B1OC(=O)C(CC(=O)O)(CC(=O)O)O1 [drawing 64]
0.0134

Could you report GI50 for every entry in the following list?
1. CC(C)C[C@H](NC(=O)CNC(=O)c1cc(Br)ccc1Cl)B1OC(=O)C(CC(=O)O)(CC(=O)O)O1 [drawing 60]
2. CC(C)C[C@H](NC(=O)CNC(=O)c1cc(Br)ccc1F)B1OC(=O)C(CC(=O)O)(CC(=O)O)O1 [drawing 61]

Solution:
[0.0107, 0.012]
